Test system: West Nile virus
Experimental Protocol: Inhibition of West Nile virus NS2B-NS3 protease using 2-Abz-Gly-Leu-Lys-Arg-Gly-Gly-[…]-Tyr-NH2 as substrate at 50 uM preincubated with protein for 15 mins followed by substrate addition measured for 15 mins by FRET assay
Would you mind telling me the reported inhibition of each entry?
Return type: number; implicit unit %.

-- ask Quick one: inhibition of N=C(N)NCCC[C@H](NC(=O)c1ccccc1)C(=O)N[C@@H](CCCCN)C(=O)N[C@H](C(N)=O)c1ccc(OCc2ccccc2)cc1 ?
-- reply 88

-- ask Field entry: N=C(N)NCCC[C@H](NC(=O)c1ccccc1)C(=O)N[C@@H](CCCCN)C(=O)N[C@@H](C(N)=O)c1ccc(OCc2ccc(Br)cc2)cc1
-- reply 99.2

-- ask Field entry: N=C(N)NCCC[C@H](NC(=O)c1nccs1)C(=O)N[C@@H](CCCCN)C(=O)N[C@@H](C(N)=O)c1ccc(OCc2c(Cl)cccc2Cl)cc1
-- reply 99.1

-- ask Field entry: COc1cccc(COc2ccc([C@@H](NC(=O)[C@H](CCCCN)NC(=O)[C@H](CCCNC(=N)N)NC(=O)c3cccs3)C(N)=O)cc2)c1
-- reply 99.3

-- ask Field entry: N=C(N)NCCC[C@H](NC(=O)c1ccco1)C(=O)N[C@@H](CCCCN)C(=O)N[C@@H](C(N)=O)c1ccc(OCc2ccccc2)cc1
-- reply 98.1

###

Assay Target: Prothrombin (Homo sapiens) (UniProt P00734)
Experimental Protocol: Inhibition of thrombin (unknown origin) using Boc-Val-Pro-Arg-AMC as substrate at 25 uM preincubated with protein for 15 mins followed by substrate addition measured for 10 mins by continuous fluorimetric assay relative to control
Calls of active or inactive are those of the source. The calls are words filed in the database; no cut-off is given here.
Assay Endpoint: inhibition

# count of solved cases: 6
- Smiles Input: "N=C(N)NCCC[C@H](NC(=O)c1nccs1)C(=O)N[C@@H](CCCCN)C(=O)N[C@@H](C(N)=O)c1ccc(OCc2ccc(C(F)(F)F)cc2)cc1"
  Assay Target: "Prothrombin (Homo sapiens) (UniProt P00734)"
  Endpoint Value: "inactive"
- Smiles Input: "CC(C)(C)c1ccc(COc2ccc([C@@H](NC(=O)[C@H](CCCCN)NC(=O)[C@H](CCCNC(=N)N)NC(=O)c3cc4sccc4s3)C(N)=O)cc2)cc1"
  Assay Target: "Prothrombin (Homo sapiens) (UniProt P00734)"
  Endpoint Value: "inactive"
- Smiles Input: "N=C(N)NCCC[C@H](NC(=O)CCc1ccccc1)C(=O)N[C@@H](CCCCN)C(=O)N[C@@H](C(N)=O)c1ccc(OCc2ccccc2)cc1"
  Assay Target: "Prothrombin (Homo sapiens) (UniProt P00734)"
  Endpoint Value: "< 30%"
- Smiles Input: "N=C(N)NCCC[C@H](NC(=O)c1ccccc1F)C(=O)N[C@@H](CCCCN)C(=O)N[C@@H](C(N)=O)c1ccc(OCc2ccccc2)cc1"
  Assay Target: "Prothrombin (Homo sapiens) (UniProt P00734)"
  Endpoint Value: "< 30%"
- Smiles Input: "N=C(N)NCCC[C@H](NC(=O)c1ccccc1)C(=O)N[C@@H](CCCCN)C(=O)N[C@@H](C(N)=O)c1ccc(OCc2ccc(Br)cc2)cc1"
  Assay Target: "Prothrombin (Homo sapiens) (UniProt P00734)"
  Endpoint Value: "< 30%"
- Smiles Input: "N=C(N)NCCC[C@H](NC(=O)c1cccnc1)C(=O)N[C@@H](CCCCN)C(=O)N[C@@H](C(N)=O)c1ccc(OCc2ccccc2)cc1"
  Assay Target: "Prothrombin (Homo sapiens) (UniProt P00734)"
  Endpoint Value: "< 30%"

-- ask // map N=C(N)NCCC[C@H](NC(=O)c1ccc(F)cc1)C(=O)N[C@@H](CCCCN)C(=O)N[C@@H](C(N)=O)c1ccc(OCc2ccccc2)cc1 to recorded inhibition (system: Prothrombin (Homo sapiens) (UniProt P00734))
-- reply < 30%

-- ask Field entry: CC(C)(C)c1ccc(COc2ccc([C@@H](NC(=O)[C@H](CCCCN)NC(=O)[C@H](CCCNC(=N)N)NC(=O)c3ccc(Cl)s3)C(N)=O)cc2)cc1
-- reply inactive

-- ask Field entry: N=C(N)NCCC[C@H](NC(=O)c1nccs1)C(=O)N[C@@H](CCCCN)C(=O)N[C@@H](C(N)=O)c1ccc(OCc2c(Cl)cccc2Cl)cc1
-- reply inactive

-- ask Field entry: N=C(N)NCCC[C@H](NC(=O)c1ccccc1C(F)(F)F)C(=O)N[C@@H](CCCCN)C(=O)N[C@@H](C(N)=O)c1ccc(OCc2ccccc2)cc1
-- reply < 30%

-- ask Field entry: N=C(N)NCCC[C@H](NC(=O)c1cc(-c2ccccc2)cs1)C(=O)N[C@@H](CCCCN)C(=O)N[C@@H](C(N)=O)c1ccc(OCc2c(Cl)cccc2Cl)cc1
-- reply inactive

-- ask Field entry: N#Cc1ccc(COc2ccc([C@@H](NC(=O)[C@H](CCCCN)NC(=O)[C@H](CCCNC(=N)N)NC(=O)c3ccccc3)C(N)=O)cc2)cc1
-- reply < 30%

-- ask Field entry: N=C(N)NCCC[C@H](NC(=O)c1ccc(C=O)cc1)C(=O)N[C@@H](CCCCN)C(=O)N[C@@H](C(N)=O)c1ccc(OCc2ccccc2)cc1
-- reply < 30%

-- ask Field entry: N=C(N)NCCC[C@H](NC(=O)c1cccc(C=O)c1)C(=O)N[C@@H](CCCCN)C(=O)N[C@@H](C(N)=O)c1ccc(OCc2ccccc2)cc1
-- reply < 30%

-- ask Field entry: N=C(N)NCCC[C@H](NC(=O)c1cc2sccc2s1)C(=O)N[C@@H](CCCCN)C(=O)N[C@@H](C(N)=O)c1ccc(OCc2c(Cl)cccc2Cl)cc1
-- reply inactive

-- ask Field entry: N=C(N)NCCC[C@H](NC(=O)c1cc2sccc2s1)C(=O)N[C@@H](CCCCN)C(=O)N[C@@H](C(N)=O)c1ccc(OCc2ccccc2)cc1
-- reply < 30%

###

Would you mind telling me the reported inhibition of each entry?
Tested on: West Nile virus
Experimental Protocol: Inhibition of West Nile virus NS2B-NS3 protease using 2-Abz-Gly-Leu-Lys-Arg-Gly-Gly-[…]-Tyr-NH2 as substrate at 50 uM preincubated with protein for 15 mins followed by substrate addition measured for 15 mins by FRET assay
Return type: number; implicit unit %.

-- ask Quick one: inhibition of N=C(N)NCCC[C@H](NC(=O)c1ccccc1)C(=O)N[C@@H](CCCCN)C(=O)N[C@@H](C(N)=O)c1ccc(OCc2ccccc2C(F)(F)F)cc1 ?
-- reply 97

-- ask Field entry: N=C(N)NCCC[C@H](NC(=O)c1ccc(C=O)cc1)C(=O)N[C@@H](CCCCN)C(=O)N[C@@H](C(N)=O)c1ccc(OCc2ccccc2)cc1
-- reply 83

-- ask Field entry: N=C(N)NCCC[C@H](NC(=O)c1ccccc1)C(=O)N[C@@H](CCCCN)C(=O)N[C@@H](C(N)=O)c1ccc(OCc2c(Cl)cccc2Cl)cc1
-- reply 101

-- ask Field entry: N=C(N)NCCC[C@H](NC(=O)/C=C/c1ccc(Cl)cc1)C(=O)N[C@@H](CCCCN)C(=O)N[C@@H](C(N)=O)c1ccc(OCc2ccccc2)cc1
-- reply 99.4

-- ask Field entry: NCCCC[C@H](NC(=O)c1ccccc1)C(=O)N[C@@H](C(N)=O)c1ccc(OCc2ccccc2)cc1
-- reply 11.4

-- ask Field entry: N=C(N)NCCC[C@H](NC(=O)c1cc2ccsc2s1)C(=O)N[C@@H](CCCCN)C(=O)N[C@@H](C(N)=O)c1ccc(OCc2ccccc2)cc1
-- reply 96.6

-- ask Field entry: N=C(N)NCCC[C@H](NC(=O)c1nccs1)C(=O)N[C@@H](CCCCN)C(=O)N[C@@H](C(N)=O)c1ccc(OCc2ccc(C(F)(F)F)cc2)cc1
-- reply 100

-- ask Field entry: N#Cc1ccc(COc2ccc([C@@H](NC(=O)[C@H](CCCCN)NC(=O)[C@H](CCCNC(=N)N)NC(=O)c3ccccc3)C(N)=O)cc2)cc1
-- reply 99.9

-- ask Field entry: N=C(N)NCCC[C@H](NC(=O)c1cscn1)C(=O)N[C@@H](CCCCN)C(=O)N[C@@H](C(N)=O)c1ccc(OCc2ccccc2)cc1
-- reply 100

-- ask Field entry: Cc1ccc(C(=O)N[C@@H](CCCNC(=N)N)C(=O)N[C@@H](CCCCN)C(=O)N[C@@H](C(N)=O)c2ccc(OCc3ccccc3)cc2)s1
-- reply 92.6

-- ask Field entry: N=C(N)NCCC[C@H](NC(=O)c1ccccc1)C(=O)N[C@@H](CCCCN)C(=O)N[C@@H](C(N)=O)c1ccc(OCc2ccc(N)cc2)cc1
-- reply 85.1

-- ask Field entry: CC(C)(C)c1ccc(COc2ccc([C@@H](NC(=O)[C@H](CCCCN)NC(=O)[C@H](CCCNC(=N)N)NC(=O)c3sccc3Cl)C(N)=O)cc2)cc1
-- reply 85.2

-- ask Field entry: N=C(N)NCCC[C@@H](NC(=O)[C@@H](CCCCN)NC(=O)c1ccccc1)C(=O)N[C@H](C(N)=O)c1ccc(OCc2ccccc2)cc1
-- reply 64

-- ask Field entry: N=C(N)NCCC[C@@H](NC(=O)[C@@H](CCCCN)NC(=O)c1ccccc1)C(=O)N[C@@H](C(N)=O)c1ccc(OCc2ccccc2)cc1
-- reply 19.9

-- ask Field entry: N=C(N)NCCC[C@H](NC(=O)c1ccccc1)C(=O)N[C@@H](CCCCN)C(=O)N[C@@H](C(N)=O)c1ccc(OCc2ccc3ccccc3c2)cc1
-- reply 92.6

This collection of values is drawn from ChEMBL document CHEMBL3739314.
